These measurements were taken from patent US10912780B2.

measurement-notes: In vivo pharmacokinetic studies in rats, 1 hr intravenous infusion
condition-details: male, Sprague-Dawley, rat, in vivo, iv, 150 mg/kg
assay-endpoint: clearance (mL/min/kg)

[[record]]
compound = "Cn1c(=O)ccc2ccc(F)c(CCNC[C@H]3CN(c4cnc5c(n4)NC(=O)CO5)C(=O)O3)c21 [Example 15]"
measured = 24.2


----------
measurement-target: E. coli topoisomerase IV (Escherichia coli, UniProt P0AFI2+P20083)
Sequence (P20083 whole entry): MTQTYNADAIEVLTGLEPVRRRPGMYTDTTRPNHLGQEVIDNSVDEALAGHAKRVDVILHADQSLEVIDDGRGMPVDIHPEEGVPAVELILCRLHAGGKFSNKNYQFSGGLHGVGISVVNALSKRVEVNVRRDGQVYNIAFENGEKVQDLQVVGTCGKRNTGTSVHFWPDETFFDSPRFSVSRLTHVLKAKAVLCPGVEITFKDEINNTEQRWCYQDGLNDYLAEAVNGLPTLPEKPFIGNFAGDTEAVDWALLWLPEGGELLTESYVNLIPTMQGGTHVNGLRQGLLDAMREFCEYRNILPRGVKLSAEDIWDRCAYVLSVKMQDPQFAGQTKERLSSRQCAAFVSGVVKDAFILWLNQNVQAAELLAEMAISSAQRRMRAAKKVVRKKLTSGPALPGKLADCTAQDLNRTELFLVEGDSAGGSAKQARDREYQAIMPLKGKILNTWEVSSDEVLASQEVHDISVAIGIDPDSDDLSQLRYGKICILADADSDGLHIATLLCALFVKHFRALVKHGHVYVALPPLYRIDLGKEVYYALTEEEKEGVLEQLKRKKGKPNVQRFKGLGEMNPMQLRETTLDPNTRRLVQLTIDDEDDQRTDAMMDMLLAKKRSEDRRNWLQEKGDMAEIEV
Sequence (P0AFI2 whole entry): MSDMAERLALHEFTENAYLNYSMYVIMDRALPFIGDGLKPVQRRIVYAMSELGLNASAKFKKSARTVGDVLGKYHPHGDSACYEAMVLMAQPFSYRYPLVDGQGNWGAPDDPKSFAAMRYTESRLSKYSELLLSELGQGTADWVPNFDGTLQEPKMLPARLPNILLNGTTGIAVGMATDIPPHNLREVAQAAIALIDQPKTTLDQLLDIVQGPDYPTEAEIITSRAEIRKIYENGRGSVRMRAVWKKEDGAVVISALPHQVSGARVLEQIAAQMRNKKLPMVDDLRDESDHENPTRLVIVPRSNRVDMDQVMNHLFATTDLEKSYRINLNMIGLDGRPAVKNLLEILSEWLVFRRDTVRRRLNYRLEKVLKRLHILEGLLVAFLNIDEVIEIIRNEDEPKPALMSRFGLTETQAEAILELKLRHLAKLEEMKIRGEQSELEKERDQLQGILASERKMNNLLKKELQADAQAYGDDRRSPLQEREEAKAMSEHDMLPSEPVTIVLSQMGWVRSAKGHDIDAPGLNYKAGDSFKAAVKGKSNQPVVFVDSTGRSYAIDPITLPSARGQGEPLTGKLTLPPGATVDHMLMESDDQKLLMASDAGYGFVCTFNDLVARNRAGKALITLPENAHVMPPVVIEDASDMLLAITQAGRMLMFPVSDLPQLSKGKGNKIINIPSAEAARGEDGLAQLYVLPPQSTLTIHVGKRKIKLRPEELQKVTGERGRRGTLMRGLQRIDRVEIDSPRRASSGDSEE
measurement-notes: biochemical
condition-details: decatenation assay; read-out: E. coli Topo IV IC50
pIC50: −log10 of the molar value.
Output Fulfilled for pIC50 not less than 7; output Not fulfilled otherwise.

[[record]]
compound = "Cn1c(=O)cc(CN)c2ccc(F)c(CCNC[C@H]3CN(c4ccc5c(n4)NC(=O)CO5)C(=O)O3)c21 [Example 13]"
category_label = "Fulfilled"

[[record]]
compound = "Cn1c(=O)ccc2ccc(F)c(CCNCC[C@@H]3CN(c4cnc5c(n4)NC(=O)CO5)C(=O)O3)c21 (single isomer, unassigned) [Example 25]"
category_label = "Fulfilled"

[[record]]
compound = "Cn1c(=O)cc(CO)c2ccc(F)c(CCNC[C@H]3CN(c4ccc5c(n4)NC(=O)CO5)C(=O)O3)c21 [Example 12]"
category_label = "Not fulfilled"

[[record]]
compound = "O=C1COc2ccc(N3C[C@H](CNCCc4c(F)ccc5ncc(=O)n(CCO)c45)OC3=O)nc2N1 [Example 9]"
category_label = "Not fulfilled"

[[record]]
compound = "Cn1c(=O)ccc2ccc(F)c(CCCNC[C@@H]3CN(c4cnc5c(n4)NC(=O)CO5)C(=O)O3)c21 [Example 23]"
category_label = "Fulfilled"


----------
A short record of MIC observed with Enterococcus faecalis ATCC 29212 follows.
assay-endpoint: MIC (µg/mL)

[[record]]
molecule = "CCn1c(=O)ccc2ccc(F)c(CCNC[C@H]3CN(c4cnc5c(n4)NC(=O)CO5)C(=O)O3)c21 [Example 26]"
units_of_measure = "µg/mL"
qualifier = "="
measured = 0.03

[[record]]
molecule = "Cn1c(=O)cnc2ccc(F)c(CCNC[C@H]3CN(c4ccc5c(n4)NC(=O)CO5)C(=O)O3)c21 [Example 4]"
units_of_measure = "µg/mL"
qualifier = "="
measured = 0.06

[[record]]
molecule = "COCCn1c(=O)ccc2ccc(F)c(CCNC[C@H]3CN(c4cnc5c(n4)NC(=O)CO5)C(=O)O3)c21 [Example 21]"
units_of_measure = "µg/mL"
qualifier = "="
measured = 0.25

[[record]]
molecule = "Cn1c(=O)ccc2ccc(F)c(CCNCC[C@@H]3CN(c4cnc5c(n4)NC(=O)CO5)C(=O)O3)c21 (single isomer, unassigned) [Example 25]"
units_of_measure = "µg/mL"
qualifier = "="
measured = 0.5

[[record]]
molecule = "Cn1c(=O)cnc2ccc(F)c(CCNC[C@H]3CN(c4cnc5c(n4)NC(=O)CO5)C(=O)O3)c21 [Example 30]"
units_of_measure = "µg/mL"
qualifier = "="
measured = 0.125

[[record]]
molecule = "Cn1c(=O)ccc2ccc(F)c(CCNC[C@@H]3CN(c4cnc5c(n4)NC(=O)CO5)C(=O)O3)c21 [Example 14]"
units_of_measure = "µg/mL"
qualifier = "="
measured = 0.06

[[record]]
molecule = "Cc1nc2ccc(F)c(CCNC[C@H]3CN(c4ccc5c(n4)NC(=O)CO5)C(=O)O3)c2n(C)c1=O [Example 6]"
units_of_measure = "µg/mL"
qualifier = "="
measured = 0.125

[[record]]
molecule = "Cn1c(=O)ccc2ncc(F)c(CCCNCC3CN(c4ccc5c(n4)NC(=O)CO5)C(=O)O3)c21 (racemic) [Example 1]"
units_of_measure = "µg/mL"
qualifier = "<"
measured = 4

[[record]]
molecule = "Cc1cc(=O)n(C)c2c(CCNC[C@H]3CN(c4cnc5c(n4)NC(=O)CO5)C(=O)O3)c(F)ccc12 [Example 28]"
units_of_measure = "µg/mL"
qualifier = "="
measured = 0.06

[[record]]
molecule = "Cn1c(=O)ccc2ncc(F)c(CCNC[C@H]3CN(c4cnc5c(n4)NC(=O)CO5)C(=O)O3)c21 [Example 29]"
units_of_measure = "µg/mL"
qualifier = "="
measured = 0.125

[[record]]
molecule = "Cn1c(=O)ccc2ccc(F)c(C[C@H](O)CNC[C@H]3CN(c4ccc5c(n4)NC(=O)CO5)C(=O)O3)c21 (single isomer, unassigned) [Example 18]"
units_of_measure = "µg/mL"
qualifier = "="
measured = 0.5

[[record]]
molecule = "O=C1COc2ccc(N3C[C@H](CNCCc4c(F)ccc5ncc(=O)n(CCO)c45)OC3=O)nc2N1 [Example 9]"
units_of_measure = "µg/mL"
qualifier = "="
measured = 0.125

[[record]]
molecule = "Cn1c(=O)ccc2ccc(F)c(C[C@@H](O)CNC[C@H]3CN(c4ccc5c(n4)NC(=O)CO5)C(=O)O3)c21 (single isomer, unassigned) [Example 19]"
units_of_measure = "µg/mL"
qualifier = "="
measured = 0.5

[[record]]
molecule = "O=C1COc2ncc(N3C[C@H](CNCCc4c(F)ccc5ccc(=O)n(CCO)c45)OC3=O)nc2N1 [Example 20]"
units_of_measure = "µg/mL"
qualifier = "="
measured = 0.125

